Experiment: chemical genetic growth profiling, strain panel (AID 1159580);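 note: tested at 20 µM; growth read once vehicle control cultures reached saturation at 30 °C; 1 = growth at the plate median or of vehicle wells; lower values mean less growth of the strain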
Details: S. cerevisiae deletion strains, growth OD, locus YNL298W, strain CLA4 (second series), hits give low values
About 2,000 (36%) of roughly 5,500 compounds were called active. Roughly 18% stayed inconclusive and do not appear here. The list shows a part of the results.
Reported normalized growth values for a set of compounds

compound: CN1C2CCC1CC(=NO)C2
normalized growth: 1.03

compound: COC(=O)c1ccc(-c2ccc(Cl)cc2)s1
normalized growth: 0.79

compound: COc1ccc(NS(=O)(=O)c2c(C)noc2C)cc1
normalized growth: 1.02

compound: CN(C)C=Nc1nnc(Sc2ncccc2[N+](=O)[O-])s1
normalized growth: 1.06

compound: Fc1cc2n[nH]nc2cc1Cl
normalized growth: 0.977

compound: CSc1c(C#N)c(-c2cccs2)nn1C
normalized growth: 0.804

compound: Cc1cc(C)c(I)c(C)c1
normalized growth: 1.04

compound: CC1C(c2ccccc2)OCCN1CN1C(=O)c2ccccc2C1=O (stereo unspecified)
normalized growth: 1

compound: O=C(Nc1ccc(C(F)(F)F)cc1)Nc1ccccc1C(=O)O
normalized growth: 0.96

compound: CCSc1sc(C(=O)OC)c(-c2ccc(Cl)cc2)c1C#N
normalized growth: 0.94

compound: COc1cccc(C2C3=C(CC(C)(C)CC3=O)OC3=C2C(=O)CC(C)(C)C3)c1O
normalized growth: 0.927
